Some molecules, each annotated with its measured Activity.
- Tested on: Radical scavenging activity
- experimental.details: Antioxidant activity assessed as DPPH radical scavenging activity at 0.01 mM after 60 mins
- Format: functional
The answer is to be given in %; state only the numeric part.

# count of solved cases: 3
Can you share its Activity? I mean this molecule: O=c1ccc2ccccc2o1 21

Can you share its Activity? I mean this molecule: Cc1cc2oc(=O)ccc2cc1O 51

Can you share its Activity? I mean this molecule: Cc1ccc2ccc(=O)oc2c1 2

Next:
Can you share its Activity? I mean this molecule: O=c1ccc2ccc(O)cc2o1 2
